// data source = patent US20150237857A1

- tgt: recombinant E. coli BioA (Escherichia coli)
- Sequence (P12995 whole entry): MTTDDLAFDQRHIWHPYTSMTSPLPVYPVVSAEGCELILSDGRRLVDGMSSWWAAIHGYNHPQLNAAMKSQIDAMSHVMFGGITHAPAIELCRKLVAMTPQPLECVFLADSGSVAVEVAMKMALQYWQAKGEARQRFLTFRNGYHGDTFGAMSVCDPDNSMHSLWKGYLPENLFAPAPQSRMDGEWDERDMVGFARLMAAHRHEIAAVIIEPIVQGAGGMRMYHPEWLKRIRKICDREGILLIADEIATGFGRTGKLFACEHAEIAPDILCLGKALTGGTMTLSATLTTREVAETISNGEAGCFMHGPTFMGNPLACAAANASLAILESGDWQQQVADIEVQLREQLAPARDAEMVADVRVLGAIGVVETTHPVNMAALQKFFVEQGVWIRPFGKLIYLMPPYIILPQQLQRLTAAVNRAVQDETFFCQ
- assay-info: BioA inhibition through a feeding assay of a bioA auxotroph
- Assay type: biochemical
- condition-label: 10 μM; relative to DMSO control
Documented inhibition at 10 µM across a set of compounds
Report the figure in % without appending any unit label.

Illustrative cases are given below, each with its answer.
> print(dat)
                                   compound                                       tgt  val
1  NNC(=O)CSc1ccccc1F [Compound 1d, 2-(2-fluorophenylthio)acetohydrazide]  recombinant E. coli BioA (Escherichia coli)  100
2  NNC(=O)CSc1cccc([N+](=O)[O-])c1 [Compound 1a, 2-(3-nitrophenylthio)acetohydrazide]  recombinant E. coli BioA (Escherichia coli)   84

# get_value(readout='inhibition at 10 µM', item= Cc1ccccc1SCC(=O)NN [Compound 1h, 2-(o-tolylthio)acetohydrazide] )
100

# get_value(readout='inhibition at 10 µM', item= CCCC(=O)NN )
40

# get_value(readout='inhibition at 10 µM', item= NNC(=O)C1Cc2ccccc2S1 (stereo not shown) )
69
